- systemTested: T1, cynoNectin4-mFc (cyno, UniProt A0A2K5WES1 32-349)
- T1 construct: Immobilized on the SPR chip; also called cyanoNectin4; not shown: mFc (mouse Fc)
- T1 sequence: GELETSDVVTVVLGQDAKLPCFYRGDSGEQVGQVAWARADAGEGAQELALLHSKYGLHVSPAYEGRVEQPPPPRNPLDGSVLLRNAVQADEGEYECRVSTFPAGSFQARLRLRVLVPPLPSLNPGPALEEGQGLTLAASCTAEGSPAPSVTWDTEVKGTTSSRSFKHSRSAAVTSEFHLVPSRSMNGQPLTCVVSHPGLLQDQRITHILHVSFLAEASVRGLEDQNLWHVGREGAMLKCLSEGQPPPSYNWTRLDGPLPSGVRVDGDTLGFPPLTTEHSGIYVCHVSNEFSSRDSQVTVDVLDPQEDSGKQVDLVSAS
- method: SPR, cynoNectin4-mFc immobilized, pH 6.0
- Method: Binding kinetics of anti-Nectin4 antibodies were measured by surface plasmon resonance using a SPR2/4 instrument (Sierra Sensors, Hamburg, Germany) and flat amine sensor chips. The SPR sensor contained four flow cells (FC1-FC4), each of which was addressed individually or in groups. huNectin4-His was immobilized in FC2, and cynoNectin4-mFc in FC4. No protein was immobilized in FC1 and FC3 which were used as control surfaces for FC2 and FC4, respectively. […] The off-rate was measured for 360s. […]
metricName: pKd
// scale note: pKd = -log10(conc_M); give the bare number

Endpoint output: pKd of BAP-143-00-04 (antibody, V domains shown, Used as a conjugate with a linker payload (CAB ADC)) VH: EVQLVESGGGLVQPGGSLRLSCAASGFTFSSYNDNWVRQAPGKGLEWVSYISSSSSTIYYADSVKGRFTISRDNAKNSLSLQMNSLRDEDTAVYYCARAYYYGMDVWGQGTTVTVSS VL: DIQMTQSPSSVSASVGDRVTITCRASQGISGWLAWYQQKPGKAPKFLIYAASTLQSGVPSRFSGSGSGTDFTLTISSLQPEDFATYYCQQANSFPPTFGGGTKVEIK . Value?
8.68
